tested_on: FAD-linked sulfhydryl oxidase ALR (Homo sapiens)
assay_name: inhibitors of human ALR sulfhydryl oxidase, dose response, biochemical, H2O2 detection, luminescence, cherry-pick (AID 493248)
measurement_parameters: purified ALR, DTT oxidation, H2O2 HRP-luminol luminescence; at 10 µM (top of the series)
Hit rate of the full screen: of about 2,300 compounds, about 1,400 (61%) were called active. Inconclusive results (about 7%) are left out. So high a share suggests a set chosen from earlier hits. The list is a sample of the results. Potency and affinity values are given separately.
Reported activity change, negative = inhibition values are given for each entry in this list.

compound	unit_text	activity change, negative = inhibition
Cc1cccc(-n2c(C)n[nH]c2=S)c1C	%	-35.3
Cc1ccc(Nc2nnns2)cc1C	%	-6.48
CC(NS(=O)(=O)c1ccccc1)c1n[nH]c(=S)n1-c1ccccc1 (stereo not given)	%	-28.7
Cc1ccc(N(C(=O)c2ccc(Br)o2)C2C=CS(=O)(=O)C2)cc1 (stereo not given)	%	-13.3
Cc1n[nH]c(=S)n1-c1ccc(Cl)cc1	%	-91.4
CC(C)(C)C(=O)NC1=NCCS1	%	-0.254
c1ccc2c(c1)CSc1ccccc1N2	%	-6.27
COc1ccccc1NS(=O)(=O)c1cc([N+](=O)[O-])ccc1N/N=C/c1c[nH]c2ccccc12	%	0.734
CCCCC(=O)Nc1ccnc(-c2cccnc2)n1	%	34
Cc1ccc(NC(=O)CCC(=O)N/N=C/c2ccc(O)cc2)cc1	%	-2.67
Cc1ccc(O)c(-c2cc(C(F)(F)C(F)F)[nH]n2)c1	%	3.95
COc1ccc(-n2cnnc2SCc2cnc(-c3ccccc3)s2)cc1	%	-99.2
Cc1nc(N2CCN(C)CC2)c2cc(-c3ccccc3)sc2n1	%	-4.2
c1ccc2c3c([nH]c2c1)-c1[nH]ncc1CC3	%	-82.4
Cc1ccc(-c2c(C(=O)O)c(C(=O)O)c3n2CSC3)cc1	%	-43.7
O=c1oc(-c2ccc(F)cc2)nc2ccsc12	%	-52.7
CN1CCN(c2ccc(NC(=O)c3ccc(Cl)cc3)cn2)CC1	%	-19.7
Cc1oc(C(=O)Nc2ccc(C(=O)O)cc2)cc1COc1ccccc1	%	-25.3
Brc1c(CSc2nnc(-c3ccco3)o2)nc2ccccn12	%	-95.5
O=C(C1CC1)N1CCN=C1SCc1ccc(Cl)cc1	%	-64.3
C(=N\Nc1ncnc2ccccc12)/c1ccccc1	%	-47.4
Cc1cc(C(=O)NNc2ccc(F)cc2F)no1	%	5.89
CCn1c(N)[n+](CC(=O)Nc2ccc(SC(F)F)cc2)c2ccccc21	%	17.1
Cc1ccc(C(=O)Nc2cccc([N+](=O)[O-])c2)cc1S(=O)(=O)Nc1ccc(C(=O)O)cc1	%	-15
NC(=O)NC1CCCc2c1[nH]c1ccc(Cl)cc21 (stereo not given)	%	-12.4

----------
tested_on: FAD-linked sulfhydryl oxidase ALR (Homo sapiens)
assay_name: inhibitors of human ALR sulfhydryl oxidase, dose response, biochemical, H2O2 detection, luminescence, cherry-pick (AID 493248)
measurement_parameters: purified ALR, DTT oxidation, H2O2 HRP-luminol luminescence; at 10 µM (top of the series)
In all, about 2,300 compounds went through this assay and about 1,400 (61%) were called active. Inconclusive results (about 7%) are left out. So high a share suggests a set chosen from earlier hits. A selection follows. Entries with a potency or affinity are not part of this list.
Decision: activity change, negative = inhibition compared against -10%; not below it gives T, below it gives F.

compound	class
Cc1cc(C(=O)NC2CCCc3c2cnn3-c2ccc(C)c(C)c2)no1 (stereo not given)	T
COc1ccc(N2C(=O)CC(NNc3ncc(Cl)cc3Cl)C2=O)cc1 (stereo not given)	F
O=C(c1ccc(CS(=O)Cc2ccccc2Cl)o1)N1CCN(c2cccc(Cl)c2)CC1 (stereo not given)	T
COc1cccc(N2CCN(C(=O)c3cc(C)oc3C)CC2)c1	F

----------
Attribute: activity change, negative = inhibition
tested_on: FAD-linked sulfhydryl oxidase ALR (Homo sapiens) (UniProt P55789)
Sequence (P55789 whole entry, looked up): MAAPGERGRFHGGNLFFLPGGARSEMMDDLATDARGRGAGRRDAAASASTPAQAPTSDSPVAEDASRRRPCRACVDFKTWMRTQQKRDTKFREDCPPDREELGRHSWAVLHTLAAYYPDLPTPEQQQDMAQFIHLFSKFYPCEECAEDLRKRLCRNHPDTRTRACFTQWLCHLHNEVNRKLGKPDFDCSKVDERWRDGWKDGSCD
assay_name: inhibitors of human ALR sulfhydryl oxidase, dose response, biochemical, H2O2 detection, luminescence, cherry-pick (AID 493248)
measurement_parameters: purified ALR, DTT oxidation, H2O2 HRP-luminol luminescence; at 10 µM (top of the series)
The whole screen tested about 2,300 compounds, of which about 1,400 (61%) were called active. Not shown: some 7% with an inconclusive outcome. The set was probably picked from earlier hits. Not all results are given here. Measured potencies and affinities stand elsewhere.

compound	activity change, negative = inhibition [%]
O=C(Nc1nc2ccc(S(=O)(=O)N3CCCCC3)cc2s1)c1ccncc1	-6.5
Cc1nc2ccc(S(=O)(=O)NC(C(=O)Nc3nccs3)C(C)C)cc2s1 (stereo not drawn)	-35.5
CCN1CCN(C(=O)c2cc3c(-c4ccc(Cl)cc4)nn(C)c3s2)CC1	-4.97
CC1CCCCC1n1c(-c2cccnc2)n[nH]c1=S (stereo not drawn)	-2.8
N=C1/C(=C\c2ccc(Br)o2)C(=O)N=C2SC(CC(=O)N3CCCCC3)=NN12	-18.4
Cc1cccn2cc(-c3cccc(S(=O)(=O)N4CCCCC4)c3)nc12	-98.3
COc1ccc(S(=O)(=O)Nc2nc3ccccc3nc2Nc2cccc(C(=O)O)c2)cc1	-80.5
Cn1nc(-c2ccc(Cl)cc2)c2cc(C(=O)NC3CC3)sc21	-2.11
CC1=Nc2ccccc2N=C(N)C1c1ccccc1 (stereo not drawn)	-61.3
COc1ccc(-c2n[nH]c(=S)n2-c2ccc(C)cc2)cc1OC	3.4
Cc1cc(-c2n[nH]c(=S)n2-c2ccc(C)c(C)c2)no1	-43
Cc1nn(-c2ccccc2)c2nc(-c3ccco3)cc(C(=O)O)c12	-53.4
O=S(=O)(Nc1ncnc2sc3c(c12)CCC3)c1cc(F)ccc1F	5.9
Cc1cccc(NCCNc2cccc(C)c2)c1	-44.1
CC(C)c1ccc(NC2CCCN(C(=O)CCN3CCCC3=O)C2)cc1 (stereo not drawn)	-61
O=C(Cn1cnc2ccccc21)N/N=C/c1ccccn1	0.505
COC(=O)c1ccc2[nH]c3c(c2c1)CC(C)CC3 (stereo not drawn)	-6.7
CC1CCN(C(=S)c2ccc(O)cc2)CC1	-30
Nc1ccc(Oc2cc(N)cc(Oc3ccccc3)c2)cc1	29.7
COc1c(OC)c(O)c2c(=O)cc(-c3c(O)cccc3O)oc2c1OC	162
CC1C/C(=N/NC(=O)c2cccc(F)c2)c2ccc(O)cc2C1 (stereo not drawn)	-63.8
COc1cc2c(ccc3cc(OC)c(OC)c(O)c32)cc1O	-112
COc1ccc(NC(=O)CNS(=O)(=O)c2ccc3nc(C)sc3c2)c(OC)c1	-62.8
Nc1ccccc1C(O)(Cc1ccccc1)c1ccccc1 (stereo not drawn)	-3.4
CCN(CC)S(=O)(=O)c1ccc(NC(=O)c2c(-c3ccccc3)noc2C)cc1	-1.33
COc1ccc(OC)c(/C(C)=N/Nc2ccc(C(=O)O)cc2)c1	-31.7
COc1ccc(OC)c(NC(=O)CN(c2ccc(C(C)C)cc2)S(=O)(=O)c2c(C)noc2C)c1	28.2
CCc1nnc(NS(=O)(=O)c2ccc(NC(=O)OC)cc2)s1	-99.5
CN(C)c1ccc(C(=O)N2CCCC2)cc1	-10.3
CSc1ccc(/C=C2\C(=N)N3N=C(CC(=O)N4CCCCC4)SC3=NC2=O)cc1	-54.4
C=CCn1c(-c2sccc2C)n[nH]c1=S	0.591
CC(C)c1cc(C(=O)N/N=C/c2ccco2)n[nH]1	21.6
Cc1cccc(Oc2ccc(N)cc2)c1	-1.09
COc1ccc(C(=O)NCCNc2nc3ccc(C)cc3cc2C#N)cc1OC	3.56
Cn1ccnc1SCc1cn2ccccc2n1	-1.35
COc1cc(Sc2ccc(C)cc2)c(OC)cc1N	-74.8
COC(=O)c1ccc(CSc2nc3ccc(Cl)cc3[nH]2)o1	-47.5
Cc1cc(-c2ccccc2)nc2cc(C(=O)NCc3ccco3)nn12	-17.4
Fc1ccc(CN2C3=NCCN3c3ccccc32)cc1	-38.3
O=C(CCCC1=NS(=O)(=O)c2ccccc2N1)N1CCN(c2ccc(Cl)cc2)CC1	-50.1
COc1ccc(-c2coc3cc(O)ccc3c2=O)cc1O	-45.2
O=C(Nc1cccs1)Nc1c(F)cc(F)cc1Br	-42.8
Cc1cc(N/N=C/c2ccco2)c2ccccc2n1	-3.59
O=C(NCCN1CCN(c2ccccc2)CC1)c1cccc(Cl)c1	-76.5
Cc1cc(Nc2ccccc2)n(CCC#N)n1	-16.4
Nc1nn2cc(-c3ccccc3)nc2c2ccccc12	-12.4
Oc1ccc(N=Cc2ccc(O)c(O)c2)cc1	102
Cc1cc(C)nc(Sc2c(C)nn(-c3ccccc3)c2C)n1	-4.01

----------
tested_on: FAD-linked sulfhydryl oxidase ALR (Homo sapiens) (UniProt P55789)
assay_name: inhibitors of human ALR sulfhydryl oxidase, dose response, biochemical, H2O2 detection, luminescence, cherry-pick (AID 493248)
measurement_parameters: purified ALR, DTT oxidation, H2O2 HRP-luminol luminescence; at 10 µM (top of the series)
Hit rate of the full screen: of about 2,300 compounds, about 1,400 (61%) were called active. About 7% were inconclusive and are not listed. The set was probably picked from earlier hits. A selection follows. Results with a measured potency or affinity are listed apart.
Class rule met: activity change, negative = inhibition at least -30%. Class rule not met: activity change, negative = inhibition below -30%.

compound	tested_on	class
CC(=O)Nc1ccc(S(=O)(=O)NNc2ccc([N+](=O)[O-])cc2)cc1	FAD-linked sulfhydryl oxidase ALR (Homo sapiens) (UniProt P55789)	rule not met
COc1ccc(CNc2ccc(Br)cc2)cc1	FAD-linked sulfhydryl oxidase ALR (Homo sapiens) (UniProt P55789)	rule met
O=C(/C(=N/N=C/c1ccc(O)c(O)c1O)c1ccccc1)c1ccccc1	FAD-linked sulfhydryl oxidase ALR (Homo sapiens) (UniProt P55789)	rule not met
COc1cc(NC(=O)C2CCCN(S(=O)(=O)c3cnc[nH]3)C2)cc(OC)c1 (stereo not given)	FAD-linked sulfhydryl oxidase ALR (Homo sapiens) (UniProt P55789)	rule not met
COC(=O)c1[nH]c2cc(OC)ccc2c1N=CN(C)C	FAD-linked sulfhydryl oxidase ALR (Homo sapiens) (UniProt P55789)	rule not met
O=C(Nc1ccc(O)cc1)c1cc2n(n1)C(C(F)(F)F)CC(c1ccco1)N2 (stereo not given)	FAD-linked sulfhydryl oxidase ALR (Homo sapiens) (UniProt P55789)	rule not met
CC(=O)N1CCN=C1SCc1ccc(Cl)cc1	FAD-linked sulfhydryl oxidase ALR (Homo sapiens) (UniProt P55789)	rule met
Cc1ccc(S(=O)(=O)N2CCCC(C(=O)O)C2)s1 (stereo not given)	FAD-linked sulfhydryl oxidase ALR (Homo sapiens) (UniProt P55789)	rule met
O=C(C1CC1)N1CCN=C1SCc1ccc(F)cc1	FAD-linked sulfhydryl oxidase ALR (Homo sapiens) (UniProt P55789)	rule not met
O=C(O)C1C(c2ccccc2)C(C(=O)Oc2ccc(O)cc2)C1c1ccccc1 (stereo not given)	FAD-linked sulfhydryl oxidase ALR (Homo sapiens) (UniProt P55789)	rule not met
CCC(=O)N1CCN=C1SCc1cccc(F)c1	FAD-linked sulfhydryl oxidase ALR (Homo sapiens) (UniProt P55789)	rule met
COc1cc(OC)cc(-c2cn[nH]c2N)c1	FAD-linked sulfhydryl oxidase ALR (Homo sapiens) (UniProt P55789)	rule not met
CN1c2ccccc2Sc2cc(N)ccc21	FAD-linked sulfhydryl oxidase ALR (Homo sapiens) (UniProt P55789)	rule not met
COc1ccc(SCCc2ccncc2)cc1	FAD-linked sulfhydryl oxidase ALR (Homo sapiens) (UniProt P55789)	rule met
Cn1ccnc1SCc1cccc([N+](=O)[O-])c1	FAD-linked sulfhydryl oxidase ALR (Homo sapiens) (UniProt P55789)	rule met
O=c1oc2ccccc2n1CSC1=NCCS1	FAD-linked sulfhydryl oxidase ALR (Homo sapiens) (UniProt P55789)	rule met
CC(C)(O)C#Cc1ccc(C(=O)NC2CCCCC2)s1	FAD-linked sulfhydryl oxidase ALR (Homo sapiens) (UniProt P55789)	rule not met
COc1cccc(CNc2nc3ccccc3n2CCN2CCCCC2)c1OC	FAD-linked sulfhydryl oxidase ALR (Homo sapiens) (UniProt P55789)	rule met
CN(Cc1ccco1)C(=O)C(Cc1ccccc1)NS(=O)(=O)c1ccc2c(c1)CCC(=O)N2 (stereo not given)	FAD-linked sulfhydryl oxidase ALR (Homo sapiens) (UniProt P55789)	rule met
Cc1ccc(N=Nc2c(N)[nH]n3c(=O)cc(C)nc23)cc1	FAD-linked sulfhydryl oxidase ALR (Homo sapiens) (UniProt P55789)	rule not met
CCc1ccc(OC)c(-c2csc(N)n2)c1	FAD-linked sulfhydryl oxidase ALR (Homo sapiens) (UniProt P55789)	rule met
O=C(NCc1ccccc1Cl)C1CCCN(S(=O)(=O)c2cnc[nH]2)C1 (stereo not given)	FAD-linked sulfhydryl oxidase ALR (Homo sapiens) (UniProt P55789)	rule met
Cc1cccc(CSc2nn3c(=O)c(C)nnc3s2)c1	FAD-linked sulfhydryl oxidase ALR (Homo sapiens) (UniProt P55789)	rule not met
CC(C)Cn1c(N)c(C=O)c(=O)n(C)c1=O	FAD-linked sulfhydryl oxidase ALR (Homo sapiens) (UniProt P55789)	rule met
CC(=O)Oc1ccc(Nc2ccccc2)cc1	FAD-linked sulfhydryl oxidase ALR (Homo sapiens) (UniProt P55789)	rule met
